Below, each entry is listed with its recorded inhibition at 1.14 µM.
Biological target: human full-length recombinant PKC βII (Homo sapiens)
Construct: Active human full-length recombinant PKC βII; purchased Invitrogen GmbH, Darmstadt, Germany
Sequence (P05771 1-673 isoform P05771-2): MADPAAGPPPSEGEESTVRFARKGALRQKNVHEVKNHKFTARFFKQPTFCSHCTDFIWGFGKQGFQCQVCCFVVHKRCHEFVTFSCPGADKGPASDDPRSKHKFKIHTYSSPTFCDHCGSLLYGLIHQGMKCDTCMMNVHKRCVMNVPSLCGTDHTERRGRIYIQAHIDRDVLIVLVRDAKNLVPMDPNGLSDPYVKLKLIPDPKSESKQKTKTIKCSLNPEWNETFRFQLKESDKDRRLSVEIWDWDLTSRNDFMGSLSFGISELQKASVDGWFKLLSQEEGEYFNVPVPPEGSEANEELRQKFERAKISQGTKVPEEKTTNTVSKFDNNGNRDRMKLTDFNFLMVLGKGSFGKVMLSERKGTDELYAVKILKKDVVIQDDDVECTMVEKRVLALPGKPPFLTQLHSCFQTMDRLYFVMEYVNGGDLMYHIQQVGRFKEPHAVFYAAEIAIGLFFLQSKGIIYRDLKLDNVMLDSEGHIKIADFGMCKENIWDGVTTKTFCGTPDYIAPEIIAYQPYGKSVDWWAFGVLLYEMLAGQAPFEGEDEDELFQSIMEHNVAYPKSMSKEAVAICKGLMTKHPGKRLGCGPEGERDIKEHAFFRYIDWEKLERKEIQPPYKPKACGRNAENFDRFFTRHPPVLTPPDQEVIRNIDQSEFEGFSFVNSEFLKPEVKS
Experiment: Determination of PKC βII inhibition (Caliper mobility-shift kinase assay)
Assay type: biochemical
Details: example compounds at a final concentration of 1.14 μM (±0.15 μM); 60 min incubation at 32° C.
observation type: inhibition at 1.14 µM (%)

1. COCCN1CCN(C(=O)c2cc(-c3ccc(O)cc3)nc3[nH]ncc23)CC1 :: 27
2. O=C(N[C@@H]1CCCNC1)c1cc(-c2ccc(O)cc2)nc2[nH]ncc12 :: 83
3. O=C(NC1CCN(C2CCCCC2)CC1)c1cc(-c2ccc(O)cc2)nc2[nH]ncc12 :: 64
4. O=C(N[C@@H]1CN2CCC1CC2)c1cc(-c2ccc(O)cc2)nc2[nH]ncc12 :: 71
5. CCN1CCCC(NC(=O)c2cc(-c3ccc(O)cc3)nc3[nH]ncc23)C1 (stereo not shown) :: 54
6. N[C@H]1C[C@@H]1NC(=O)c1cc(-c2ccc(O)cc2)nc2[nH]ncc12 (racemic) :: 55
7. O=C(c1cc(-c2ccc(O)cc2)nc2[nH]ncc12)N1CCC[C@H]1CN1CCCC1 :: 20
8. O=C(c1cc(-c2ccc(O)cc2)nc2[nH]ncc12)N1CCCC2(CNCCO2)C1 (stereo not shown) :: 15
9. O=C(c1cc(-c2ccc(O)cc2)nc2[nH]ncc12)N1CCC2(CNCCO2)C1 (stereo not shown) :: 53
10. NC1CCN(C(=O)c2cc(-c3ccc(O)cc3)nc3[nH]ncc23)C1 (stereo not shown) :: 50
11. O=C(NC1CCN(Cc2cccnc2)CC1)c1cc(-c2ccc(O)cc2)nc2[nH]ncc12 :: 84
12. CC(=O)N1CCC(NC(=O)c2cc(-c3ccc(O)cc3)nc3[nH]ncc23)CC1 :: 40
13. O=C(c1cccnc1)N1CCN(C(=O)c2cc(-c3ccc(O)cc3)nc3[nH]ncc23)CC1 :: 35
14. O=C(c1cc(-c2ccc(O)cc2)nc2[nH]ncc12)N1CCC2(CCNC2)C1 (stereo not shown) :: 58
15. CO[C@H]1CNC[C@@H]1NC(=O)c1cc(-c2ccc(O)cc2)nc2[nH]ncc12 [Example 6] :: 87
16. CC(C)N1CCN(C(=O)c2cc(-c3ccc(O)cc3)nc3[nH]ncc23)CC1 :: 23
17. CO[C@H]1CNC[C@@H]1NC(=O)c1cc(-c2ccc(O)cc2)nc2[nH]ncc12 (racemic) [Example 29] :: 87
18. O=C(NC1CCNC2(CCC2)C1)c1cc(-c2ccc(O)cc2)nc2[nH]ncc12 (stereo not shown) :: 69
19. O=C(NCC1CNC1)c1cc(-c2ccc(O)cc2)nc2[nH]ncc12 :: 39
20. O=C(c1cc(-c2ccc(O)cc2)nc2[nH]ncc12)N1CCC2CNCC21 (stereo not shown) :: 45
21. NC1CCCC(NC(=O)c2cc(-c3ccc(O)cc3)nc3[nH]ncc23)C1 (stereo not shown) :: 87
22. O=C(N[C@@H]1CCCN(Cc2ccccc2)C1)c1cc(-c2ccc(O)cc2)nc2[nH]ncc12 :: 57
23. CC1CN(C(=O)c2cc(-c3ccc(O)cc3)nc3[nH]ncc23)CCN1 (stereo not shown) :: 91
24. O=C(NC1CCN(Cc2ccncc2)CC1)c1cc(-c2ccc(O)cc2)nc2[nH]ncc12 :: 45
25. CC1(C)CNCCN1C(=O)c1cc(-c2ccc(O)cc2)nc2[nH]ncc12 :: 96
26. N[C@H]1CCN(C(=O)c2cc(-c3ccc(O)cc3)nc3[nH]ncc23)C1 :: 64
27. O=C(c1cc(-c2ccc(O)cc2)nc2[nH]ncc12)N1CCN(C2CCCCCC2)CC1 :: 40
28. O=C(NC1CN2CCC1CC2)c1cc(-c2ccc(O)cc2)nc2[nH]ncc12 (stereo not shown) :: 78
29. N[C@H]1CC[C@H](NC(=O)c2cc(-c3ccc(O)cc3)nc3[nH]ncc23)CC1 :: 82
30. O=C(c1cc(-c2ccc(O)cc2)nc2[nH]ncc12)N1CCCC2(CCNC2)C1 (stereo not shown) :: 29
31. O=C(c1cc(-c2ccc(O)cc2)nc2[nH]ncc12)N1CCNCC1 :: 88
32. O=C(NC1CNC1)c1cc(-c2ccc(O)cc2)nc2[nH]ncc12 :: 82
33. CNC1CCN(C(=O)c2cc(-c3ccc(O)cc3)nc3[nH]ncc23)C1 (stereo not shown) :: 62
34. CC(=O)N1CCN(C(=O)c2cc(-c3ccc(O)cc3)nc3[nH]ncc23)CC1 :: 46
